test_method_notes: AUC (0 to 24 hrs) in CD1 nu/nu mouse xenografted with human HCT116 cells at 525 mg/kg, po administered biweekly for 3 weeks
Format: ADME, organism-based, HCT-116
Parameters: time < 24 hr, dose 525 mg/kg, route oral
condition_summary: in vivo
measured_attribute: AUC at 24 h (µM·h)
Report only the number, with the unit µM·h understood.

Input line: Annotate the compound Nc1ccc(-c2cccs2)cc1NC(=O)c1ccc(N2CCC3(CC2)CNC(=O)O3)nc1 with its measured AUC at 24 h.
Output line: 808

----------
System: HCT-116
test_method_notes: cells
Type: functional, Homo sapiens
condition_summary: Homo sapiens, HCT-116, 72 h
GI50 under 700 nM gets yes, anything at or over 700 nM gets no.

Here are 5 molecules together with their reported answers.
>  <smiles_record>
Nc1ccc(-c2ccsc2)cc1NC(=O)c1ccc(N2CCC3(CC2)CNC(=O)O3)nc1

>  <label_value>
yes

$$$$
>  <smiles_record>
Cc1csc(-c2ccc(N)c(NC(=O)c3ccc(N4CCC5(CC4)CNC(=O)O5)nc3)c2)c1

>  <label_value>
no

$$$$
>  <smiles_record>
Cn1cc(-c2ccc(N)c(NC(=O)c3ccc(N4CCC5(CC4)CNC(=O)O5)nc3)c2)cn1

>  <label_value>
no

$$$$
>  <smiles_record>
Nc1ccccc1NC(=O)c1ccc(N2CCC3(CC2)CNC(=O)O3)nc1

>  <label_value>
no

$$$$
>  <smiles_record>
Cn1cnc(-c2ccc(N)c(NC(=O)c3ccc(N4CCC5(CC4)CNC(=O)O5)nc3)c2)c1

>  <label_value>
no

$$$$

Input line: Would you kindly verify if GI50 of Nc1ccc(-c2ccccc2)cc1NC(=O)c1ccc(N2CCC3(CC2)CNC(=O)O3)nc1 is strictly less than 700 nM?
Output line: yes

----------
test_method_notes: Cmax in CD1 nu/nu mouse xenografted with human HCT116 cells at 100 mg/kg, po qd for 3 weeks
Format: ADME, organism-based, HCT-116
Design: dose 100 mg/kg, route oral
condition_summary: in vivo
measured_attribute: Cmax
Enter the number, and then the unit.

Input line: Annotate the molecule Nc1ccc(-c2cccs2)cc1NC(=O)c1ccc(N2CCC3(CC2)CNC(=O)O3)nc1 with its measured Cmax.
Output line: 6.9 µM

----------
test_method_notes: Volume of distribution at steady state in Sprague-Dawley rat at 2 mg/kg, iv
Type: ADME, organism-based
Parameters: dose 2 mg/kg, route intravenous
condition_summary: in vivo, read-out: Vdss
measured_attribute: Vd
Enter the number, and then the unit.

Input line: Annotate the compound Nc1ccc(-c2cccs2)cc1NC(=O)c1ccc(N2CCC3(CC2)CNC(=O)O3)nc1 with its measured Vd.
Output line: 0.7 L/kg

----------
test_method_notes: Cmax in CD1 nu/nu mouse xenografted with human HCT116 cells at 350 mg/kg, po administered biweekly for 3 weeks
Format: ADME, organism-based, HCT-116
Parameters: dose 350 mg/kg, route oral
condition_summary: in vivo
measured_attribute: Cmax
Enter the number, and then the unit.

Input line: Annotate the compound Nc1ccc(-c2cccs2)cc1NC(=O)c1ccc(N2CCC3(CC2)CNC(=O)O3)nc1 with its measured Cmax.
Output line: 32.8 µM

----------
test_method_notes: AUC (0 to 24 hrs) in CD1 nu/nu mouse xenografted with human HCT116 cells at 100 mg/kg, po qd for 3 weeks
Type: ADME, organism-based, HCT-116
Design: time < 24 hr, dose 100 mg/kg, route oral
condition_summary: in vivo
measured_attribute: AUC at 24 h
Enter the number, and then the unit.

Input line: Annotate the molecule Nc1ccc(-c2cccs2)cc1NC(=O)c1ccc(N2CCC3(CC2)CNC(=O)O3)nc1 with its measured AUC at 24 h.
Output line: 110 µM·h

----------
test_method_notes: Half life in CD-1 mouse at 5 mg/kg, iv
Assay type: ADME, organism-based
Set-up: dose 5 mg/kg, route intravenous
condition_summary: in vivo
measured_attribute: half-life (min)
Report only the number, with the unit min understood.

Input line: Annotate the molecule Nc1ccc(-c2cccs2)cc1NC(=O)c1ccc(N2CCC3(CC2)CNC(=O)O3)nc1 with its measured half-life.
Output line: 120

----------
test_method_notes: Plasma clearance in CD-1 mouse at 5 mg/kg, iv
Format: ADME, organism-based
Parameters: dose 5 mg/kg, route intravenous
measured_attribute: clearance (mL/min/kg)
Report only the number, with the unit mL/min/kg understood.

Input line: Annotate the compound Nc1ccc(-c2cccs2)cc1NC(=O)c1ccc(N2CCC3(CC2)CNC(=O)O3)nc1 with its measured clearance.
Output line: 27

----------
test_method_notes: Plasma protein binding in CD-1 mouse at 2 uM
Assay type: ADME, cell-free
condition_summary: read-out: PPB (converted)
measured_attribute: fraction unbound at 2 µM
Note: the reply should be a number with no unit written.

Input line: Annotate the compound Nc1ccc(-c2cccs2)cc1NC(=O)c1ccc(N2CCC3(CC2)CNC(=O)O3)nc1 with its measured fraction unbound at 2 µM.
Output line: 0.015

----------
test_method_notes: AUC (0 to 24 hrs) in CD1 nu/nu mouse xenografted with human HCT116 cells at 200 mg/kg, po qd for 3 weeks
Assay type: ADME, organism-based, HCT-116
Set-up: time < 24 hr, dose 200 mg/kg, route oral
condition_summary: in vivo
measured_attribute: AUC at 24 h (µM·h)
Report only the number, with the unit µM·h understood.

Input line: Annotate the compound Nc1ccc(-c2cccs2)cc1NC(=O)c1ccc(N2CCC3(CC2)CNC(=O)O3)nc1 with its measured AUC at 24 h.
Output line: 371

----------
test_method_notes: Half life in beagle dog at 0.5 mg/kg, iv
Type: ADME, organism-based, Canis lupus familiaris
Parameters: dose 0.5 mg/kg, route intravenous
condition_summary: in vivo
measured_attribute: half-life (h)
Report only the number, with the unit h understood.

Input line: Annotate the molecule Nc1ccc(-c2cccs2)cc1NC(=O)c1ccc(N2CCC3(CC2)CNC(=O)O3)nc1 with its measured half-life.
Output line: 1.4

----------
test_method_notes: Plasma protein binding in beagle dog at 2 uM
Assay type: ADME, cell-free, Canis lupus familiaris
condition_summary: read-out: PPB (converted)
measured_attribute: fraction unbound at 2 µM
Note: the reply should be a number with no unit written.

Input line: Annotate the molecule Nc1ccc(-c2cccs2)cc1NC(=O)c1ccc(N2CCC3(CC2)CNC(=O)O3)nc1 with its measured fraction unbound at 2 µM.
Output line: 0.024

----------
test_method_notes: Oral bioavailability in CD-1 mouse at 10 mg/kg
Type: ADME, organism-based
condition_summary: in vivo
measured_attribute: bioavailability (%)
Report only the number, with the unit % understood.

Input line: Annotate the compound Nc1ccc(-c2cccs2)cc1NC(=O)c1ccc(N2CCC3(CC2)CNC(=O)O3)nc1 with its measured bioavailability.
Output line: 82

----------
test_method_notes: Cmax in CD1 nu/nu mouse xenografted with human HCT116 cells at 50 mg/kg, po qd for 3 weeks
Assay type: ADME, organism-based, HCT-116
Set-up: dose 50 mg/kg, route oral
condition_summary: in vivo
measured_attribute: Cmax
Enter the number, and then the unit.

Input line: Annotate the compound Nc1ccc(-c2cccs2)cc1NC(=O)c1ccc(N2CCC3(CC2)CNC(=O)O3)nc1 with its measured Cmax.
Output line: 3.5 µM

----------
test_method_notes: in vivo
condition_summary: CD1 nu/nu, mouse, po, 875 mg/kg
Description: Cmin in CD1 nu/nu mouse xenografted with human HCT116 cells at 875 mg/kg, po administered biweekly for 3 weeks after 24 hrs
measured_attribute: concentration at 24 h
Enter the number, and then the unit.

Input line: Annotate the molecule Nc1ccc(-c2cccs2)cc1NC(=O)c1ccc(N2CCC3(CC2)CNC(=O)O3)nc1 with its measured concentration at 24 h.
Output line: 19.3 µM

----------
test_method_notes: Cmax in CD1 nu/nu mouse xenografted with human HCT116 cells at 200 mg/kg, po qd for 3 weeks
Type: ADME, organism-based, HCT-116
Set-up: dose 200 mg/kg, route oral
condition_summary: in vivo
measured_attribute: Cmax (µM)
Report only the number, with the unit µM understood.

Input line: Annotate the compound Nc1ccc(-c2cccs2)cc1NC(=O)c1ccc(N2CCC3(CC2)CNC(=O)O3)nc1 with its measured Cmax.
Output line: 40.4

----------
test_method_notes: in vivo
condition_summary: CD1 nu/nu, mouse, po, 525 mg/kg
Description: Cmin in CD1 nu/nu mouse xenografted with human HCT116 cells at 525 mg/kg, po administered biweekly for 3 weeks after 24 hrs
measured_attribute: concentration at 24 h (µM)
Report only the number, with the unit µM understood.

Input line: Annotate the compound Nc1ccc(-c2cccs2)cc1NC(=O)c1ccc(N2CCC3(CC2)CNC(=O)O3)nc1 with its measured concentration at 24 h.
Output line: 9.4

----------
test_method_notes: Volume of distribution at steady state in CD-1 mouse at 5 mg/kg, iv
Format: ADME, organism-based
Set-up: dose 5 mg/kg, route intravenous
condition_summary: in vivo, read-out: Vdss
measured_attribute: Vd (L/kg)
Report only the number, with the unit L/kg understood.

Input line: Annotate the molecule Nc1ccc(-c2cccs2)cc1NC(=O)c1ccc(N2CCC3(CC2)CNC(=O)O3)nc1 with its measured Vd.
Output line: 2.1

----------
test_method_notes: AUC (0 to 24 hrs) in CD1 nu/nu mouse xenografted with human HCT116 cells at 50 mg/kg, po qd for 3 weeks
Format: ADME, organism-based, HCT-116
Parameters: time < 24 hr, dose 50 mg/kg, route oral
condition_summary: in vivo
measured_attribute: AUC at 24 h (µM·h)
Report only the number, with the unit µM·h understood.

Input line: Annotate the molecule Nc1ccc(-c2cccs2)cc1NC(=O)c1ccc(N2CCC3(CC2)CNC(=O)O3)nc1 with its measured AUC at 24 h.
Output line: 40
